assay_target: Dm5-HT2B (Drosophila melanogaster, UniProt Q8INQ6)
Sequence (Q8INQ6 entry or part of it): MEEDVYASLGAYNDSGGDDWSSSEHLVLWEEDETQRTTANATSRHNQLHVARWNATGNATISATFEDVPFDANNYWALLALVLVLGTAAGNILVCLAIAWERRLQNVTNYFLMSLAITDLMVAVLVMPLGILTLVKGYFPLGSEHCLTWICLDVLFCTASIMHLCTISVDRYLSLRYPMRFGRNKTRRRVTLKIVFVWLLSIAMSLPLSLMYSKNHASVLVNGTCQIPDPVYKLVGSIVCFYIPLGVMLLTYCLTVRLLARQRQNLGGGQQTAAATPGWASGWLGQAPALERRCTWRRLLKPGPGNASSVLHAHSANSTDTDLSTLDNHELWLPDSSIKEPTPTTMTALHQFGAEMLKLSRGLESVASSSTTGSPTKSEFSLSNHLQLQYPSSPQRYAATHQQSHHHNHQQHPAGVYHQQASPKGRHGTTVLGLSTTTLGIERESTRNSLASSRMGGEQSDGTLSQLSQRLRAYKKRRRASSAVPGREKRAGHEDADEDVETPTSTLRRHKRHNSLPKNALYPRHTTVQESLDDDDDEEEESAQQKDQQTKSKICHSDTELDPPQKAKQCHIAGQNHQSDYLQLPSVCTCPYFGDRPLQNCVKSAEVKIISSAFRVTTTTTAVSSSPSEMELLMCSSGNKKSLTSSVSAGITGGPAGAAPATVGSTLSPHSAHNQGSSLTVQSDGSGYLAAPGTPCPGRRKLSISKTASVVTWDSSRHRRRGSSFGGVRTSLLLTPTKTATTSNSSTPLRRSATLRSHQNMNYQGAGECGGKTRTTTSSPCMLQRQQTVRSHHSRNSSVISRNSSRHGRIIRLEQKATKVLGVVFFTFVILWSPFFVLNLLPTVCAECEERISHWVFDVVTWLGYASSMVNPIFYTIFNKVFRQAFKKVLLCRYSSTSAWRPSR
measurement_notes: Ca2+ fluorimetry (Fluo-4), agonist activation of Dm5-HT2B expressed in HEK 293 cells
Format: cell-based
pEC50: −log10 of the molar value.

compound: CCCN(CCC)C1CCc2cccc(O)c2C1 (stereo not shown) [8-OH-DPAT, 8-Hydroxy-2-(di-n-propylamino)tetralin]
assay_target: Dm5-HT2B (Drosophila melanogaster, UniProt Q8INQ6)
pEC50: ~3.19

----------
assay_target: UniProt:Q8INQ6
measurement_notes: Ca2+ fluorimetry (Fluo-4), antagonists on serotonin-stimulated Dm5-HT2B-expressing HEK 293 cells
Format: cell-based
condition: background of 10^-7 M serotonin; Dm5-HT2B-expressing HEK 293 cells

compound: O=C(CCCN1CCC2(CC1)C(=O)NCN2c1ccccc1)c1ccc(F)cc1 [Spiperone, spiperone]
IC50: no saturation
//
compound: COc1cc2nc(N3CCN(C(=O)c4ccco4)CC3)nc(N)c2cc1OC [Prazosin, prazosin]
IC50: no saturation
//
compound: CC[C@@H](CO)NC(=O)[C@@H]1C=C2c3cccc4c3c(cn4C)C[C@H]2N(C)C1 [Methysergide, methysergide]
IC50: no effect
//
compound: O=C(c1ccc(F)cc1)C1CCN(CCn2c(=O)[nH]c3ccccc3c2=O)CC1 [Ketanserin, ketanserin]
IC50: no effect
//
compound: Cc1cc2c(cc1Cl)N(C(=O)Nc1ccc(Oc3cccnc3C)nc1)CC2 [SB 242084]
IC50: no effect
